Entries with their measured Ki, system Cannabinoid receptor 1 (Homo sapiens, UniProt P21554):

SAMPLE SMILES | STUDY TARGET | MODIFIER SIGN | Ki [nM]
CCCCCn1cc(C(=O)NC23CC4CC(C)(CC(C)(C4)C2)C3)c(=O)n2nc(-c3ccccc3)nc12 | Cannabinoid receptor 1 (Homo sapiens, UniProt P21554) | = | 653
CCCCCn1cc(C(=O)NC23CC4CC(CC(C4)C2)C3)c(=O)n2nc(-c3cccnc3)nc12 | Cannabinoid receptor 1 (Homo sapiens, UniProt P21554) | > | 10000
CCCCCn1cc(C(=O)NC2CCCCCC2)c(=O)n2nc(N3CCN(C)CC3)nc12 | Cannabinoid receptor 1 (Homo sapiens, UniProt P21554) | > | 10000
CCCCCn1cc(C(=O)NC23CC4CC(C)(CC(C)(C4)C2)C3)c(=O)n2ncnc12 | Cannabinoid receptor 1 (Homo sapiens, UniProt P21554) | = | 622
CCCCCn1cc(C(=O)NC2CCCCCC2)c(=O)n2ncnc12 | Cannabinoid receptor 1 (Homo sapiens, UniProt P21554) | = | 717
CCCCCn1cc(C(=O)NC2CCCCC2)c(=O)n2nc(-c3ccc(OC)cc3)nc12 | Cannabinoid receptor 1 (Homo sapiens, UniProt P21554) | = | 5850
CCCCCn1cc(C(=O)NC23CC4CC(CC(C4)C2)C3)c(=O)n2nc(SC)nc12 | Cannabinoid receptor 1 (Homo sapiens, UniProt P21554) | > | 10000
CCCCCn1cc(C(=O)NC2CCCCC2)c(=O)n2nc(-c3ccccc3)nc12 | Cannabinoid receptor 1 (Homo sapiens, UniProt P21554) | = | 3210
CCCCCn1cc(C(=O)NC2CCCCC2)c(=O)n2nc(C)nc12 | Cannabinoid receptor 1 (Homo sapiens, UniProt P21554) | = | 488
CCCCCn1cc(C(=O)NC2CCCCC2)c(=O)n2nc(N3CCN(C)CC3)nc12 | Cannabinoid receptor 1 (Homo sapiens, UniProt P21554) | > | 10000
CCCCCn1cc(C(=O)NC23CC4CC(CC(C4)C2)C3)c(=O)n2nc(-c3ccco3)nc12 | Cannabinoid receptor 1 (Homo sapiens, UniProt P21554) | = | 1170
CCCCCn1cc(C(=O)NC23CC4CC(CC(C4)C2)C3)c(=O)n2nc(C)nc12 | Cannabinoid receptor 1 (Homo sapiens, UniProt P21554) | = | 471

====

STUDY TARGET: UniProt:P34972
Sequence (P34972 whole entry): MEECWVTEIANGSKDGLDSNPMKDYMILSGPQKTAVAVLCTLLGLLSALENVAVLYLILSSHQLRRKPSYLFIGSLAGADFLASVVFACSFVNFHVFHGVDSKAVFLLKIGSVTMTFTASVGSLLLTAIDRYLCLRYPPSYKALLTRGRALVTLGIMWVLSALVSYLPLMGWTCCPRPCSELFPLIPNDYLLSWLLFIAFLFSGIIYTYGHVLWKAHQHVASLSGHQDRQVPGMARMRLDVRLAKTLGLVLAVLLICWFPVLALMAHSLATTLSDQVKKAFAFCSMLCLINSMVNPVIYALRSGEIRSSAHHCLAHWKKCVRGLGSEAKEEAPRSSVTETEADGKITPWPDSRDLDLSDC
Mark True for Ki under 50 nM, False if at or over.

SAMPLE SMILES | DISCRETE LABEL
CCCCCn1cc(C(=O)NC23CC4CC(CC(C4)C2)C3)c(=O)n2nc(SC)nc12 | True
CCCCCn1cc(C(=O)NC2CCCCCC2)c(=O)n2nc(N3CCN(C)CC3)nc12 | False
CCCCCn1cc(C(=O)NC23CC4CC(CC(C4)C2)C3)c(=O)n2nc(-c3ccc(C)cc3)nc12 | True
CCCCCn1cc(C(=O)NC2CCCCC2)c(=O)n2nc(-c3ccccc3)nc12 | True
CCCCCn1cc(C(=O)NC23CC4CC(CC(C4)C2)C3)c(=O)n2nc(-c3ccco3)nc12 | True
CCCCCn1cc(C(=O)NC23CC4CC(C)(CC(C)(C4)C2)C3)c(=O)n2ncnc12 | True
CCCCCn1cc(C(=O)NC2CCCCCC2)c(=O)n2ncnc12 | False
CCCCCn1cc(C(=O)NC2CCCCC2)c(=O)n2nc(N3CCOCC3)nc12 | False
CCCCCn1cc(C(=O)NC23CC4CC(CC(C4)C2)C3)c(=O)n2nc(N3CCOCC3)nc12 | False
CCCCCn1cc(C(=O)NC23CC4CC(CC(C4)C2)C3)c(=O)n2nc(C)nc12 | False
CCCCCn1cc(C(=O)NC2CCCCC2)c(=O)n2nc(-c3ccc(OC)cc3)nc12 | False
CCCCCn1cc(C(=O)NC2CCCCC2)c(=O)n2nc(C)nc12 | False
CCCCCn1cc(C(=O)NC23CC4CC(CC(C4)C2)C3)c(=O)n2nc(-c3ccc(Cl)cc3)nc12 | True
CCCCCn1cc(C(=O)NC2CCCCC2)c(=O)n2nc(SC)nc12 | False
CCCCCn1cc(C(=O)NC2CCCCC2)c(=O)n2nc(N(C)Cc3ccccc3)nc12 | False
C=CCN(CC=C)c1nc2n(CCCCC)cc(C(=O)NC3CCCCC3)c(=O)n2n1 | False
CCCCCn1cc(C(=O)NC23CC4CC(C)(CC(C)(C4)C2)C3)c(=O)n2nc(-c3ccccc3)nc12 | True
CCCCCn1cc(C(=O)NC2CCCCCC2)c(=O)n2nc(-c3ccccc3)nc12 | True
C=CCN(CC=C)c1nc2n(CCCCC)cc(C(=O)NC34CC5CC(CC(C5)C3)C4)c(=O)n2n1 | False
CCCCCn1cc(C(=O)NC2CCCCC2)c(=O)n2nc(-c3ccc(Cl)cc3)nc12 | False
CCCCCn1cc(C(=O)NC2CCCCCC2)c(=O)n2nc(N3CCOCC3)nc12 | False
CCCCCn1cc(C(=O)NC23CC4CC(CC(C4)C2)C3)c(=O)n2nc(-c3cccnc3)nc12 | False
CCCCCn1cc(C(=O)NC2CCCCC2)c(=O)n2nc(N3CCN(C)CC3)nc12 | False
CCCCCn1cc(C(=O)NC23CC4CC(CC(C4)C2)C3)c(=O)n2nc(N(C)Cc3ccccc3)nc12 | True
CCCCCn1cc(C(=O)NC2CCCCCC2)c(=O)n2nc(-c3ccc(C)cc3)nc12 | True
CCCCCn1cc(C(=O)NC2CCCCC2)c(=O)n2nc(-c3ccc(C)cc3)nc12 | True
CCCCCn1cc(C(=O)NC23CC4CC(CC(C4)C2)C3)c(=O)n2nc(-c3ccc(OC)cc3)nc12 | True
